Record type: pIC50 measurement. Applies to: UniProt:P00742
Sequence (P00742 235-488 limits assumed): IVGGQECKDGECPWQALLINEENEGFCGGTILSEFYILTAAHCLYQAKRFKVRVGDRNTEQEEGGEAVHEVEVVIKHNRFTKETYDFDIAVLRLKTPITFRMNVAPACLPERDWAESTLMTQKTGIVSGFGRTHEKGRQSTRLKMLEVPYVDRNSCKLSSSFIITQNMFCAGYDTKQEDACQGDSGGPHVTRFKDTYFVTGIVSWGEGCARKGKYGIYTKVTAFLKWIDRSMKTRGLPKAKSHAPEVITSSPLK
Sequence (P00742 41-179 partner limits assumed): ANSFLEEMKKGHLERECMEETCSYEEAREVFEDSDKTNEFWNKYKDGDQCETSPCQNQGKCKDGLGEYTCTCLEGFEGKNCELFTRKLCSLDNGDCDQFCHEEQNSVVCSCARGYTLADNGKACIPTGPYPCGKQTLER
pIC50: −log10 of the molar value.
OUTCOME MEASURE: pIC50

- MOLECULE: "COc1cc(C(O)CNC(=O)c2cccc(NS(=O)(=O)c3ccccc3)c2)ccc1O (stereo not drawn)"
  SYSTEM TESTED: "UniProt:P00742"
  QUANTITATIVE READOUT: 4.68

(1) NCCCCCNC(=O)c1cccc(NS(=O)(=O)c2ccc3ccccc3c2)c1
(2) CN(C)c1ccc(CNC(=O)c2cccc(NS(=O)(=O)c3ccc4ccccc4c3)c2)cc1
Of 1 and 2 , whose reported pIC50 is numerically smaller? Record your answer as the label of the chosen record.
1
(1: 5.12, 2: 5.49)

====

Target: UniProt P00734
pIC50: −log10 of the molar value.
OUTCOME MEASURE: pIC50

(I) O=C(NCC(O)c1cccc(O)c1)c1cccc(NS(=O)(=O)c2ccc3ccccc3c2)c1 (stereo not drawn)
(II) CN(C)c1ccc(CNC(=O)c2cccc(NS(=O)(=O)c3ccc4ccccc4c3)c2)cc1
(III) O=C(NCCc1ccccn1)c1cccc(NS(=O)(=O)c2ccc3ccccc3c2)c1
Give the descending pIC50 ranking for the 3 compounds listed above. Answer by naming the labels in the order asked.
II, I, III
(II: 4.28, I: 4.06, III: 3.53)
